# Target Of Assay: DYRK3 (Homo sapiens)
# Construct: purchased Carna Biosciences, Inc. 04-133
# Sequence (O43781 1-568 isoform O43781-2): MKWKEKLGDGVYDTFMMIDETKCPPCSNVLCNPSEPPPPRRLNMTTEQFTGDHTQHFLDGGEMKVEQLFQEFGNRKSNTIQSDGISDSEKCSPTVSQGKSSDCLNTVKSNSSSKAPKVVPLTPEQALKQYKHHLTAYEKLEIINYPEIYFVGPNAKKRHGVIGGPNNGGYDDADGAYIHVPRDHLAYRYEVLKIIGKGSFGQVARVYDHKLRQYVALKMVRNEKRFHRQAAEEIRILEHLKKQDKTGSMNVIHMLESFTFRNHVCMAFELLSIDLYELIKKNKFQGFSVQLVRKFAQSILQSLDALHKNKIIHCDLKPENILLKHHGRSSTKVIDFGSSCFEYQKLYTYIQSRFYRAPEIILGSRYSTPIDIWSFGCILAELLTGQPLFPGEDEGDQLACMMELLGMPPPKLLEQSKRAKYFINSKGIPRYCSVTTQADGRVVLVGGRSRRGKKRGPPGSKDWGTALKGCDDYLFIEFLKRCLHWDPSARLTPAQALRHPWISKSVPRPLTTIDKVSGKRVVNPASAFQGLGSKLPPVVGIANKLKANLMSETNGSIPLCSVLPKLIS
# Experimental Protocol: Inhibition test on activity of DYRK family, mobility shift assay (MSA): DYRK3
# Format: biochemical
# Condition Info: read-out: Inhibitory activity DYRK 3
# Method: [Inhibition Test on Activity of DYRK Family (DYRK1A, DYRK1B, DYRK2, and DYRK3)] The kinase activity was measured by mobility shift assay (MSA) method using QuickScout Screening Assist™ MSA (commercially available kit manufactured by Carna Biosciences, Inc.). […] The heights of the peaks of the “substrate” and the “phosphorylated substrate” were expressed as S and P, respectively, and a blank containing the assay buffer instead of the enzyme solution was also measured. […]
Endpoint Name: IC50

Given N#C[C@H]1C[C@H]2NC(=O)N(c3nc4c5c(ccc4s3)OCC5)[C@H]2CO1 , respond with its IC50. ≥ 1 µM

Quickly give me recorded IC50 for N#CCN1CC[C@@H]2NC(=O)N(c3nc4c5c(ccc4s3)OCC5)[C@@H]2C1 (racemic) [Example 100] ≥ 1 µM

Hello, please tell me recorded IC50 for this one: CO[C@H]1C[C@H]2NC(=O)N(c3nc4c5c(ccc4s3)OCC5)[C@H]2CO1 ≥ 1 µM

Tell us which IC50 value is on record for O=C1N[C@H]2COCC[C@H]2N1c1nc2c3c(ccc2s1)OCC3 (racemic) [Example 121] 0.1 to 1 µM

Continuing:
Specify reported IC50 for the compound shown: O=C1N[C@H]2CCOC[C@H]2N1c1nc2c3c(ccc2s1)OCC3 (racemic) 0.1 to 1 µM
